Data provenance: patent US20260193326A1

# System: T1, AAV5 (adeno-associated virus 5)
# T1 construct: also called adeno-associated virus serotype 5
# Protocol Details: SPR, AAV amine-coupled to CM5 chip;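 note: nanobodies flowed as analyte at seven concentrations spanning 1–100 nM over immobilized AAV (500–800 RU), kinetic constants derived by fitting the binding curves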
Property Name: pKd
Entry type: numeric. Quantity: pKd, the -log10 of concentration in molar units.

These solved cases illustrate the format of a correct answer.
- Binder: "A4-089 (VHH) VHH: VQLQESGGGLVQPGGSLRLSCAASGSNFSINTMGWYRQAPGKQRELVATFTRAGNTNYADSVKGRFTISRDNGKNTVYLQMNSLRPEDTAVYYCHVDEVRDSSWTTSNLWGQGTQVTVSS"
  pKd: 6.79
- Binder: "A4-072 (VHH) VHH: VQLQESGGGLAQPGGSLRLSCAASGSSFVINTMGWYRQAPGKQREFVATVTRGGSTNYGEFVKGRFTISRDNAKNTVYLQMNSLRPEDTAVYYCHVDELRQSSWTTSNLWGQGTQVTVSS"
  pKd: 8.42
- Binder: "A4-070 (VHH) VHH: VQLQESGGGLVQPGGSLRLSCAASGSIFSINSMGWYRQAPGKWRELVATVTRGGSTNYANSVKGRFTISRDNAKNTVYLQMNTLRPEDTAVYYCHLDEVRDSSWTTSNLWGQGTQVTVSS"
  pKd: 7.06

Turning now to a further record.
Query block: Note down pKd recorded for A4-060 (VHH) VHH: VQLQESGGGLVQPGGSLRLSCAASGSTFSLNTMGWYRQAPGKQREIVATVTRGGSTNYAESVKGRFTISRDNAKNTVYLQMNSLRPEDTAVYYCHVDEVRQSTWTTSNLWGQGTQVTVSS
Result block: 8.61
